# Assay: Inhibition of rabbit liver carboxylesterase after 15 mins
# Parameters: species or system Oryctolagus cuniculus
Measurement name: IC50 (nM)

CCCCCCCCSCC(=O)C(F)(F)F ... 1.9
CCCCCCCCS(=O)(=O)CC(=O)C(F)(F)F ... 35

I = O=C(C(=O)c1ccccc1)c1ccccc1
II = CCCCCCCCCCC(=O)C(F)(F)F
III = CCCCCCCC[S+]([O-])CC(=O)C(F)(F)F (stereo not given)
**Query** Rank the 3 compounds: largest IC50 first, smallest last. Response field: labels, in requested order.
**Result** I, II, III
(I: 29 nM, II: 14 nM, III: 5 nM)
